Attribute: IC50
biological target: ATP-dependent translocase ABCB1 (Homo sapiens, UniProt P08183); assay: Inhibition of human MDR1 expressed in mouse NIH3T3 cells assessed as inhibition of drug efflux by flow cytometry
Sequence (P08183 whole entry): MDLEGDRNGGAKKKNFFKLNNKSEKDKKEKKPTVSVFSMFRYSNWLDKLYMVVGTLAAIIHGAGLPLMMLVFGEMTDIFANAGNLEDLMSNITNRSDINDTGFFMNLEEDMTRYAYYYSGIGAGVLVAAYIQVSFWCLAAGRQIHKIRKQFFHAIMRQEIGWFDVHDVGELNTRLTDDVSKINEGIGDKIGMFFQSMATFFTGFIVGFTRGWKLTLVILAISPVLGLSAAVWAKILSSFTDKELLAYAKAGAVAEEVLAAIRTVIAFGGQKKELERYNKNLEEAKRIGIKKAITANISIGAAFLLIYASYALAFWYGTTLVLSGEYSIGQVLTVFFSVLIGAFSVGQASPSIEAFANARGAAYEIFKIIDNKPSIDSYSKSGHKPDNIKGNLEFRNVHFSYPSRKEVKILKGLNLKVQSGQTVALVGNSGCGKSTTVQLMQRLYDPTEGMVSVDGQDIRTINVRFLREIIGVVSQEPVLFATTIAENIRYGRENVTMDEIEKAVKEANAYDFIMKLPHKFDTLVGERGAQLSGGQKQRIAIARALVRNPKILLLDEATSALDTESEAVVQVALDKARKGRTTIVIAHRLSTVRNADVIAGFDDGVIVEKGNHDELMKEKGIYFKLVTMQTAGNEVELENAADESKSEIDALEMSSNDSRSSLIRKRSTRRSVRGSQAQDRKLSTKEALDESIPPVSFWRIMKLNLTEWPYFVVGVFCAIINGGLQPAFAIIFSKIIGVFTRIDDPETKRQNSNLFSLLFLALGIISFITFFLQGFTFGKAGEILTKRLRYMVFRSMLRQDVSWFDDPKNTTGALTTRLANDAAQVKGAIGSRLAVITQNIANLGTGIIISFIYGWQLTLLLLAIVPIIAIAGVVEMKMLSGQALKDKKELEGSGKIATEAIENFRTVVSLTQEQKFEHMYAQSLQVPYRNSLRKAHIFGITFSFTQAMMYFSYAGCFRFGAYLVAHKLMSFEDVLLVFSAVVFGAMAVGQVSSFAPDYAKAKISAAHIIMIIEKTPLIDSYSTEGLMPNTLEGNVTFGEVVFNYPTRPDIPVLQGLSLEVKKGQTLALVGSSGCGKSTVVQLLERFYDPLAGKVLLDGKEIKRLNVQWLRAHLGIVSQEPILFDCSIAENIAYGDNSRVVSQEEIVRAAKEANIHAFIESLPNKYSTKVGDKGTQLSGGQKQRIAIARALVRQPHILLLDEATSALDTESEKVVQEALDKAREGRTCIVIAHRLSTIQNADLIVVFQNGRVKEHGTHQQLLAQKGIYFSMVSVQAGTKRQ
Peptide text beside a SMILES is read from it. * marks the point of attachment. Cbz = O=C(OCc1ccccc1)*; Boc = CC(C)(C)OC(=O)*; OBn = c1ccc(CO*)cc1; OtBu = CC(C)(C)O*
Write the number in µM without appending the unit.

Below: 2 compounds and their reported IC50.
# COMPOUND, UNIT_STRING, IC50
data = [
    ("CC(C)(C)OC(=O)[C@H](CCCCNC(=O)OCc1ccccc1)NC(=O)[C@@H]1C[C@@H](OC(=O)C2CCCCC2)CN1C(=O)OC(C)(C)C", "µM", 1.68),
    ("CC(C)(C)OC(=O)N[C@@H](CC(=O)OCc1ccccc1)C(=O)N[C@@H](CCCCNC(=O)OCc1ccccc1)C(=O)OC(C)(C)C [REVERSIN 121] (Boc-Asp(OBn)-Lys(Cbz)-OtBu)", "µM", 1.41),
]

The record that follows has no IC50 shown yet.
State its IC50 for this compound: CC(C)(C)OC(=O)CC(C(=O)[C@H](Cc1ccc(OC(C)(C)C)cc1)NC(=O)OC(C)(C)C)S(=O)(=O)c1ccccc1 (stereo partly drawn)
1.55

* * *

Attribute: inhibition at 10 µM
target: UniProt P08183; assay: Inhibition of p-glycoprotein expressed in human K562/R7 cells assessed as inhibition of drug efflux at 10 uM by flow cytometry; assay type: cell-based; settings: K562/R7 cells expressing P-glycoprotein
Square brackets hold non-standard residues; d marks the D form. Peptide text beside a SMILES is read from it. * marks the point of attachment. Hyp = O=C(O)[C@@H]1C[C@@H](O)CN1; Aad = N[C@@H](CCCC(=O)O)C(=O)O; Cbz = O=C(OCc1ccccc1)*; PhAc = O=C(Cc1ccccc1)*; Boc = CC(C)(C)OC(=O)*; OBn = c1ccc(CO*)cc1; OtBu = CC(C)(C)O*
Quick note: unit goes after the number.

Below: 4 compounds and their reported inhibition at 10 µM.
# COMPOUND, inhibition at 10 µM
rows = [
    ("CC(C)(C)OC(=O)[C@H](CCCCNC(=O)OCc1ccccc1)NC[C@@H]1C[C@@H](OCc2ccccc2)CN1C(=O)OC(C)(C)C", "77.6%"),
    ("CC(C)(C)OC(=O)[C@H](CCCCNC(=O)OCc1ccccc1)NC(=O)[C@@H]1C[C@@H](OC(=O)Cc2ccccc2)CN1C(=O)OC(C)(C)C (Boc-[Hyp](PhAc)-Lys(Cbz)-OtBu)", "88.2%"),
    ("CC(C)(C)OC(=O)[C@H](CCCCNC(=O)OCc1ccccc1)NC(=O)[C@@H]1C[C@@H](OCC2CCCCC2)CN1C(=O)OC(C)(C)C", "79.8%"),
    ("CC(C)(C)OC(=O)[C@H](CCCCNC(=O)OCc1ccccc1)NC(=O)[C@@H]1C[C@@H](OC(=O)C2CCCCC2)CN1C(=O)OC(C)(C)C", "94.9%"),
]

The record that follows has no inhibition at 10 µM shown yet.
State its inhibition at 10 µM for this compound: CC(C)(C)OC(=O)N[C@@H](CCCC(=O)OCc1ccccc1)C(=O)N[C@@H](CCCCNC(=O)OCc1ccccc1)C(=O)OC(C)(C)C (Boc-[Aad](OBn)-Lys(Cbz)-OtBu)
65.5%

These measurements were taken from ChEMBL document CHEMBL1250516.
